testedTarget: NS3 (Hepatitis C virus, UniProt A3EZJ3)
Sequence (A3EZJ3 whole entry): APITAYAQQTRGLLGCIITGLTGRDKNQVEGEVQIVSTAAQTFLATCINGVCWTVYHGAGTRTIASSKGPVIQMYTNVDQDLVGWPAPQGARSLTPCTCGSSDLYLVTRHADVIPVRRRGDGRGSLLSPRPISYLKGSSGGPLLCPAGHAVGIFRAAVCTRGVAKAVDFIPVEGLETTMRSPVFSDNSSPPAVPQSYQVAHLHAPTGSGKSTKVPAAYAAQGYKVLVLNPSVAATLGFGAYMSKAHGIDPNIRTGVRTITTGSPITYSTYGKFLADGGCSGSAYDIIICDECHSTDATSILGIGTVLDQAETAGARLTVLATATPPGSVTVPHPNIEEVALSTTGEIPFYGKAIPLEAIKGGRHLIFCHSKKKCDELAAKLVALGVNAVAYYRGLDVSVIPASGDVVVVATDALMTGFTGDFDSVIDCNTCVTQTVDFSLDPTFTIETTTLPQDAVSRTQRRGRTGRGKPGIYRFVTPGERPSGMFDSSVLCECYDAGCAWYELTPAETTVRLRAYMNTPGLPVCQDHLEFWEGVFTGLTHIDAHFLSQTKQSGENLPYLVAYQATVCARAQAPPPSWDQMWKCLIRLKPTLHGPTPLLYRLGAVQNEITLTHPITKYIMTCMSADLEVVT
experimentalDetails: Inhibitory activity against HCV NS3 protease
Parameters: species or system Hepacivirus hominis
experimentalContext: read-out: Ki app
pKi: −log10 of the molar value.
measure: pKi

Here are 2 compounds together with their reported answers.
INSERT INTO results (compound, testedtarget, measure, reported) VALUES
  ('CN(C)C(=O)[C@@H](NC(=O)CNC(=O)C(=O)C(CC1CC1)NC(=O)[C@@H]1C2CCC(C2)N1C(=O)[C@@H](NC(=O)OC(C)(C)C)C1CCCCC1)c1ccccc1 (stereo not given in full)', 'NS3 (Hepatitis C virus, UniProt A3EZJ3)', 'pKi', 7.70),
  ('CC(C)CC(NC(=O)[C@@H]1C2CCC(C2)N1C(=O)[C@@H](NC(=O)OC(C)(C)C)C(C)(C)C)C(=O)C(=O)NCC(=O)N[C@H](C(=O)N(C)C)c1ccccc1 (stereo not given in full)', 'NS3 (Hepatitis C virus, UniProt A3EZJ3)', 'pKi', 7.40);

[1] CCCCC(NC(=O)[C@@H]1C2CC([C@H]3C[C@@H]23)N1C(=O)[C@@H](NC(=O)C(C)(C)C)C1CCCCC1)C(=O)C(=O)NCC(=O)N[C@H](C(=O)N(C)C)c1ccccc1 (stereo not given in full)
[2] CN(C)C(=O)[C@@H](NC(=O)CNC(=O)C(=O)C(CC1CCC1)NC(=O)[C@@H]1C2CCC(C2)N1C(=O)[C@@H](NC(=O)OC(C)(C)C)C1CCCCC1)c1ccccc1 (stereo not given in full)
[3] CCCCC(NC(=O)[C@@H]1C2CCC(C2)N1C(=O)[C@@H](NC(=O)OC(C)(C)C)C(C)(C)C)C(=O)C(=O)NCC(=O)N[C@H](C(=O)N(C)C)c1ccccc1 (stereo not given in full)
Please list these in order of increasing pKi. Thank you! Arrange the labels as the request states and list them.
3, 2, 1

---

testedTarget: Neutrophil elastase (Homo sapiens, UniProt P08246)
Sequence (P08246 whole entry): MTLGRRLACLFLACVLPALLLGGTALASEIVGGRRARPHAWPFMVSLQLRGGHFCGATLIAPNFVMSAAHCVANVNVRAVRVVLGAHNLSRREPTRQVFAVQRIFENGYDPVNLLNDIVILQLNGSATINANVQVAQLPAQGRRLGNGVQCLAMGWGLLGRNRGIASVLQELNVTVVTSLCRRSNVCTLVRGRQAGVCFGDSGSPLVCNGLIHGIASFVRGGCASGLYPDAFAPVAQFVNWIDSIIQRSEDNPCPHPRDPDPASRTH
experimentalDetails: Inhibitory activity against HNE
experimentalContext: read-out: Ki app
measure: Ki (nM)

[A] CN(C)C(=O)[C@@H](NC(=O)CNC(=O)C(=O)C(CC1CCC1)NC(=O)[C@@H]1C2CCC(C2)N1C(=O)[C@@H](NC(=O)NC(C)(C)C)C(C)(C)C)c1ccccc1 (some centres not stated)
[B] CN(C)C(=O)[C@@H](NC(=O)CNC(=O)C(=O)C(CC1CC1)NC(=O)[C@@H]1C2CCC(C2)N1C(=O)[C@@H](NC(=O)NC(C)(C)C)C(C)(C)C)c1ccccc1 (some centres not stated)
// which entry reports the smaller Ki, A or B ? Answer format: the label of the selected item.
B

---

testedTarget: NS3 (Hepatitis C virus, UniProt A3EZJ3)
experimentalDetails: Inhibitory activity against HCV NS3 protease
Design: species or system Hepacivirus hominis
experimentalContext: read-out: Ki app
measure: Ki (nM)

[P] CN(C)C(=O)[C@@H](NC(=O)CNC(=O)C(=O)C(CC1CCC1)NC(=O)[C@@H]1C2CCC(C2)N1C(=O)[C@@H](NC(=O)OC(C)(C)C)C(C)(C)C)c1ccccc1 (stereo partly specified)
[Q] C=CCNC(=O)C(=O)C(CCC)NC(=O)[C@@H]1C2CCC(C2)N1C(=O)[C@@H](NC(=O)OC(C)(C)C)C(C)(C)C (stereo partly specified)
Given the listed records, identify the one among P and Q with higher Ki. Answer format: the label of the selected item.
Q
(Q: 5500 nM, P: 27 nM)

[a] CCCC(NC(=O)[C@@H]1C2CCC(C2)N1C(=O)[C@@H](NC(=O)OC(C)(C)C)C(C)(C)C)C(=O)C(=O)NCC(=O)O (stereo partly specified)
[b] CN(C)C(=O)[C@@H](NC(=O)CNC(=O)C(=O)C(CC1CC1)NC(=O)[C@@H]1C2CCC(C2)N1C(=O)[C@@H](NC(=O)OC(C)(C)C)C(C)(C)C)c1ccccc1 (stereo partly specified)
[c] CN(C)C(=O)[C@@H](NC(=O)CNC(=O)C(=O)C(CC1CCC1)NC(=O)[C@@H]1C2CCC(C2)N1C(=O)[C@@H](NC(=O)NC(C)(C)C)C(C)(C)C)c1ccccc1 (stereo partly specified)
Please list these in order of increasing Ki. Thank you! Arrange the labels as the request states and list them.
c, b, a
(c: 13 nM, b: 19 nM, a: 3800 nM)

---

testedTarget: NS3 (Hepatitis C virus)
experimentalDetails: Inhibitory activity against HCV NS3 protease
Parameters: species or system Hepacivirus hominis
experimentalContext: read-out: Ki
measure: Ki (nM)

[a] CC(C)CC(NC(=O)[C@@H]1C2CCC(C2)N1C(=O)[C@@H](NC(=O)OC(C)(C)C)C1CCCCC1)C(=O)C(=O)NCC(=O)N[C@H](C(=O)N(C)C)c1ccccc1 (some centres not stated)
[b] CN(C)C(=O)[C@@H](NC(=O)CNC(=O)C(=O)C(CC1CC1)NC(=O)[C@@H]1C2CCC(C2)N1C(=O)[C@@H](NC(=O)NC(C)(C)C)C1CCCCC1)c1ccccc1 (some centres not stated)
Given the listed records, identify the one among a and b with higher Ki. Answer format: the label of the selected item.
a

---

testedTarget: UniProtKB A3EZJ3
experimentalDetails: Inhibitory activity against HCV NS3 protease
Parameters: species or system Hepacivirus hominis
experimentalContext: read-out: Ki app
measure: Ki (nM)

Here are 3 compounds together with their reported answers.
INSERT INTO results (compound, testedtarget, measure, reported) VALUES
  ('CCCC(NC(=O)[C@@H]1C2CCC(C2)N1C(=O)[C@@H](NC(=O)OC(C)(C)C)C(C)(C)C)C(=O)C(=O)NCC(=O)N[C@H](C(=O)N(C)C)c1ccccc1 (stereo partly specified)', 'UniProtKB A3EZJ3', 'Ki', 110),
  ('CN(C)C(=O)[C@@H](NC(=O)CNC(=O)C(=O)C(CC1CC1)NC(=O)[C@@H]1C2CCC(C2)N1C(=O)[C@@H](NC(=O)NC(C)(C)C)C(C)(C)C)c1ccccc1 (stereo partly specified)', 'UniProtKB A3EZJ3', 'Ki', 10),
  ('CCCC(NC(=O)[C@@H]1C2CC([C@H]3C[C@@H]23)N1C(=O)[C@@H](NC(=O)C(C)(C)C)C1CCCCC1)C(=O)C(=O)NCC(=O)N[C@H](C(=O)N(C)C)c1ccccc1 (stereo partly specified)', 'UniProtKB A3EZJ3', 'Ki', 90);

[I] CCCC(NC(=O)[C@@H]1C2CCC(C2)N1C(=O)[C@@H](NC(=O)OC(C)(C)C)C(C)(C)C)C(=O)C(N)=O (stereo partly specified)
[II] CCCC(NC(=O)[C@@H]1C2CCC(C2)N1C(=O)[C@@H](NC(=O)OC(C)(C)C)C(C)(C)C)C(=O)C(=O)NCC(=O)OCc1ccccc1 (stereo partly specified)
[III] CCCC(NC(=O)[C@@H]1C2CCC(C2)N1C(=O)[C@@H](NC(=O)OC(C)(C)C)C1CCCCC1)C(=O)C(=O)NCC(=O)N[C@H](C(=O)N(C)C)c1ccccc1 (stereo partly specified)
Please list these in order of increasing Ki. Thank you! Arrange the labels as the request states and list them.
III, II, I
(III: 90 nM, II: 1500 nM, I: 6900 nM)

The reported numbers originate from ChEMBL document CHEMBL1146051.
